Target: monkey IGF-1R on COS-7 cells (monkey (African green monkey))
Assay: cell-based or functional assay
quantity_measured: % internalisation (monkey IGF-1R) (%)
// units = %; emit number, no label

binder	measurement_units	val
m212A11 (murine 212A11, hybridoma CNCM I-4773) (antibody, V domains shown) VH: QVQLQQSGPELVKPGASVKMSCKASGYTFTSYYIHWVKQRPGQGLEWIGWIWPGDGSTKYNEKFKGKTTLTADKSSSTAYMFLSSLTSEDSAVYFCASPMITPNYAMDYWGQGASVTVSS VL: DIQMTQTTSSLSASLGDRVTISCRASQDINKYLNWYQQQPDGTVKLLIYYTSRLHSGVPSRFSGRGSGTDYSLTISNLEQEDIATYFCQQGSTLPYTFGGGTKLEIK	%	73

Item under review: c208F2 (antibody, human IgG1, kappa, V domains shown, also called chimeric 208F2; chimeric form of the 208F2 second IGF-1R antibody) VH: QVQLQQSGPELVKPGASVKMSCKASGYTFTSYYIYWVKQRPGQGLEWLGWIWPGDGSTKYNEKFKDKTTLTADKSSNTAYMFLSSLTSEDSAVYFCASPMITPNYAMDYWGQGASVTVSS VL: DIQMTQTTSSLSASLGDRVTISCRASQDISKYLNWYQQQPDGTIKLLIYYTSRLHSGVPSRFSGRGSGTDYSLTISNVEQEDIATYFCQQGSTLPYTFGGGTKLEIKR . Reported % internalisation (monkey IGF-1R)?
67

Please do the same for c212A11 (antibody, human IgG1, kappa, V domains shown, also called chimeric 212A11) VH: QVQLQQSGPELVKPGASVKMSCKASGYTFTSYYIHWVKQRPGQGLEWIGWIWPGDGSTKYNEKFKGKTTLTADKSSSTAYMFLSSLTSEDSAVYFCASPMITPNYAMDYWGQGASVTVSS VL: DIQMTQTTSSLSASLGDRVTISCRASQDINKYLNWYQQQPDGTVKLLIYYTSRLHSGVPSRFSGRGSGTDYSLTISNLEQEDIATYFCQQGSTLPYTFGGGTKLEIKR as well.
75
